Target: human TLR2 (Homo sapiens, UniProt O60603)
Construct: host or cells: HEK-Blue hTLR2 (HEK-293)
Sequence (O60603 21-784): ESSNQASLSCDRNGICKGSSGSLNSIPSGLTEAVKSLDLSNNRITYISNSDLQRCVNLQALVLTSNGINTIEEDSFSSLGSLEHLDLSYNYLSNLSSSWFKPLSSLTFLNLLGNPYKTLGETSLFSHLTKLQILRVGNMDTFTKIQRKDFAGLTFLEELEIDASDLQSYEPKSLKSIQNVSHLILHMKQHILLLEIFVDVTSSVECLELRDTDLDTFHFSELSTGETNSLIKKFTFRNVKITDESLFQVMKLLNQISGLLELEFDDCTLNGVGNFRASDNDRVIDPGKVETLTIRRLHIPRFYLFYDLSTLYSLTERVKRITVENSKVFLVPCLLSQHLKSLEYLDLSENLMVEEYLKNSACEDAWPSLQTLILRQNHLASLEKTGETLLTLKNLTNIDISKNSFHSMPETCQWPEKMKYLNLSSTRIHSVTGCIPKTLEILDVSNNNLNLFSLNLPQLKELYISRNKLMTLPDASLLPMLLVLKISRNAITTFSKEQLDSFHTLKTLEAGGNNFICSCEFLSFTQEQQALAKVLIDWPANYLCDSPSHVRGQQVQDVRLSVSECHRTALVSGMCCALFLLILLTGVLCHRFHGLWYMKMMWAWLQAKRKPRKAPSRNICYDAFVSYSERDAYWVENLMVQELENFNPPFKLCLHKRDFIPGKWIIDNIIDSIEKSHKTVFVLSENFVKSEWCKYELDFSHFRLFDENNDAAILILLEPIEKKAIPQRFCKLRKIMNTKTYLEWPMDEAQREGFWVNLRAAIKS
Assay: HEK-Blue hTLR2 antagonism assay (SEAP reporter) with agonist Pam2CSK4 (TLR2/6 agonist)
Assay type: cell-based
Settings: Table A; HEK-Blue hTLR2 cells, ~3×EC50 Pam2CSK4, 18 h, SEAP OD 655 nm, 8-point dilutions
# IC50 values compiled below
Note: unit µM is implicit; provide only the numeric part.

Use the examples below as a reference point.
>>> recorded_number("O=Cc1cc(-c2ccn(-c3cccc(N4CCOCC4)c3)n2)cc(F)c1O [Compound A32]")
12.7
>>> recorded_number("O=Cc1cc(-c2ccn(-c3ccccc3)n2)cc(F)c1O [Compound A26]")
2.9
>>> recorded_number("COc1cc(-c2cnn(-c3cccc(C(F)(F)F)c3)c2)cc(C=O)c1O [Compound A9]")
3.8
>>> recorded_number("O=Cc1cc(-c2cnc(-c3ccc(N4CCCC4)cc3)s2)cc(F)c1O [Compound A55]")
0.6
>>> recorded_number("O=Cc1cc(-c2nsc(-c3cccc(N4CCCC4)c3)n2)cc(F)c1O [Compound A125]")
3.3
>>> recorded_number("Oc1c(F)cc(-c2cnn(-c3ccc(N4CCCC4)cc3)c2)cc1C1OCCCO1 [Compound A34]")
6.9
>>> recorded_number("CN1CCN(/N=C/c2cc(-c3ccn(-c4ccccc4)n3)cc(F)c2O)CC1 [Compound A33]")
4
>>> recorded_number("O=Cc1cc(-n2cc(-c3cccc(N4CCCC4)c3)nn2)cc(F)c1O [Compound A44]")
1
>>> recorded_number("COc1cc(-c2cnn(-c3ccccc3)c2)cc(C=O)c1O [Compound A1]")
2.2
>>> recorded_number("O=Cc1cc(-c2cnn(-c3cccc(N4CCCCC4)c3)c2)cc(F)c1O [Compound A23]")
0.8

**Query** Field request: IC50 | item: Cc1cc(-c2cnn(-c3ccccc3)c2)cc(O)c1F [Compound A14]
**Result** 42.2

**Query** Please answer likewise for O=Cc1cc(-c2nc(-c3ccccc3)ns2)cc(F)c1O [Compound A95]
**Result** 3

**Query** Can you check O=Cc1cc(-c2cnc(-c3ccc(N4CCCC4)cc3)s2)ncc1O [Compound A112] next?
**Result** 0.3

**Query** Cool, now O=Cc1cc(-c2cnn(-c3ccc(N4CCOCC4)cc3)c2)cc(F)c1O [Compound A21]
**Result** 2.6

**Query** Try O=Cc1cc(-c2csc(-c3ccc(N4CCCC4)nc3)n2)cc(F)c1O [Compound A123] next.
**Result** 1.7

**Query** Similarly, O=Cc1cc(-c2nc(-c3ccccc3)co2)cc(F)c1O [Compound A90] ?
**Result** 6.5
